System: Viola tricolor
Assay: Herbicidal effect post-emergence
Type: in vivo
Details: 320 g/ha, visual grading after ca. 3 weeks (Table 8)
Consider the following molecules and their measured herbicidal effect VIOTR readings.

>  <molecule>
CCC(=O)Nc1nsc2c(=O)n(CC3CCCCC3Cl)cc(Cl)c12 (racemic) [Example I-172]

>  <subject.of.test>
Viola tricolor

>  <herbicidal effect VIOTR [%]>
100

$$$$
>  <molecule>
CC(=O)Nc1nsc2c(=O)n(CC3CCCCC3)cc(Cl)c12 [Example I-084]

>  <subject.of.test>
Viola tricolor

>  <herbicidal effect VIOTR [%]>
100

$$$$
>  <molecule>
CCC(=O)Nc1nsc2c(=O)n(CC3CCCCC3)cc(Cl)c12 [Example I-083]

>  <subject.of.test>
Viola tricolor

>  <herbicidal effect VIOTR [%]>
100

$$$$
>  <molecule>
CCC(=O)OCC1Cc2c(N)nsc2C(=O)N1CC1CCCCC1 (centres unmarked) [Example I-039]

>  <subject.of.test>
Viola tricolor

>  <herbicidal effect VIOTR [%]>
100

$$$$
>  <molecule>
Nc1nsc2c(=O)n(Cc3cc(F)c(F)cc3F)cc(F)c12 [Example I-163]

>  <subject.of.test>
Viola tricolor

>  <herbicidal effect VIOTR [%]>
90

$$$$

###

Consider the following molecules and their measured herbicidal effect ALOMY readings.
Test system: Alopecurus myosuroides
Assay: Herbicidal effect pre-emergence
Type: in vivo
Conditions: 320 g/ha, visual grading after ca. 3 weeks vs untreated controls
assay.metric: herbicidal effect ALOMY (%)

>  <molecule>
Nc1nsc2c(=O)n(CC3CCCCC3)cc(Br)c12 [Example I-054]

>  <assay.metric>
herbicidal effect ALOMY

>  <value.reported>
90

$$$$
>  <molecule>
CCC(=O)Nc1nsc2c(=O)n(CC3CCCCC3)c(CC)cc12 [Example I-029]

>  <assay.metric>
herbicidal effect ALOMY

>  <value.reported>
90

$$$$
>  <molecule>
O=C(Nc1nsc2c(=O)n(CC3CCCCC3Cl)cc(Cl)c12)C(F)(F)C(F)(F)F (racemic) [Example I-161]

>  <assay.metric>
herbicidal effect ALOMY

>  <value.reported>
100

$$$$
>  <molecule>
Nc1nsc2c(=O)n(CC3CCCCC3)cc(Cl)c12 [Example I-064]

>  <assay.metric>
herbicidal effect ALOMY

>  <value.reported>
100

$$$$
>  <molecule>
O=C(Nc1nsc2c(=O)n(CC3CCCCC3)cc(Br)c12)C(F)(F)C(F)(F)F [Example I-077]

>  <assay.metric>
herbicidal effect ALOMY

>  <value.reported>
100

$$$$
>  <molecule>
CC(=O)Nc1nsc2c(=O)n(CC3CCCCC3)cc(Cl)c12 [Example I-084]

>  <assay.metric>
herbicidal effect ALOMY

>  <value.reported>
100

$$$$
>  <molecule>
CCC(=O)Nc1nsc2c(=O)n(CC3CCCCC3)cc(F)c12 [Example I-128]

>  <assay.metric>
herbicidal effect ALOMY

>  <value.reported>
100

$$$$
>  <molecule>
O=C(Nc1nsc2c(=O)n(CC3CCCCC3)cc(Cl)c12)C(F)(F)C(F)(F)F [Example I-081]

>  <assay.metric>
herbicidal effect ALOMY

>  <value.reported>
100

$$$$
>  <molecule>
CCC(=O)Nc1nsc2c(=O)n(CC3CCCCC3Cl)cc(Cl)c12 (racemic) [Example I-172]

>  <assay.metric>
herbicidal effect ALOMY

>  <value.reported>
100

$$$$
